// provenance: paper PMC3287420

TESTED ON: MKNK2 (Homo sapiens, UniProt Q9HBH9)
Sequence (Q9HBH9 whole entry, species assumed): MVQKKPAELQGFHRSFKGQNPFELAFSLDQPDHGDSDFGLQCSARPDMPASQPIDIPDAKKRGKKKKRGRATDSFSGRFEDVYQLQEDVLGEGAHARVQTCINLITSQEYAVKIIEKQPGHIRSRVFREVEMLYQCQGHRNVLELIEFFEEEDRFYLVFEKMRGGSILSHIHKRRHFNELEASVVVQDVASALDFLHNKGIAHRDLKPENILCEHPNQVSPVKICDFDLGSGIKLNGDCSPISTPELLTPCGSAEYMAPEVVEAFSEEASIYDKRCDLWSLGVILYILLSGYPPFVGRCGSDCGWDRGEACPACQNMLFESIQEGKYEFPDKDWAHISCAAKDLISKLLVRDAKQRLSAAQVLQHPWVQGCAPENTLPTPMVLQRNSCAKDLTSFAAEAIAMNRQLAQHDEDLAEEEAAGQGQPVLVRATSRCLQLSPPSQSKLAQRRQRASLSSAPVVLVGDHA
pIC50: −log10 of the molar value.
PARAMETER MEASURED: pIC50

Return the recorded pIC50 value; entry: COc1cc(C(=O)N2CCC(N3CCN(C)CC3)CC2)ccc1Nc1ncc2c(n1)N(C)c1ccccc1C(=O)N2C [LRRK2-IN-1]
< 6.00
